System: LXRb homodimer (NR concentration 270 nM)
assayRemarks: PBM binding z-score (relative to random genomic background probes); higher = stronger binding; sequences stand for … in GC…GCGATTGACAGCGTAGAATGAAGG
Parameter threshold = -0.04. Response is true when PBM binding z-score meets or exceeds it, else false.

CCTTACGGGTCACTCCAGGTTATGGCATCGGAGT    true

Is PBM binding z-score for `CGAACTTGGTCATTGACAGGACAGTGAATAGTAA` at or above -0.04?
false

Given `AGTCAAAGTTCATATAGGTAACGTAAGATATGCT` , state whether its PBM binding z-score is at least -0.04.
true

Would you say `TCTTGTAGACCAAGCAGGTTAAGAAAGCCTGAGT` shows PBM binding z-score at minimum -0.04?
false

API: above_or_equal(metric=PBM binding z-score, cutoff=-0.04) for item `CAAACTTGGTCACGAAAGGTCAAAGTCGAATGAC`
true

Is the recorded value of PBM binding z-score equal to or greater than -0.04 for this sequence? `TCGAGTAGGTTAGGGGCATCCAGAATGGCGTCGA`
false

###

System: RARa:RXR (NR concentration 270 nM, RXRa partner concentration 90 nM)
assayRemarks: PBM binding z-score (relative to random genomic background probes); higher = stronger binding; sequences stand for … in GC…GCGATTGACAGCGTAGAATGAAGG
Quick rule for you: PBM binding z-score at 0.4 or higher means T, lower means F.

// below: answered sequences
TTACCAAGGTGAAGGGCGTTGATCCCTCTGTAGA    T
ACTCGGAGGACACAGGTCAGAGCTACGCCAGTGA    T
AGAGACAGGTGATGAAGGTAACTCAGGCTATCAT    F

Has `CAAACTAGGTTAAGAGGTCAAAGTCCGCTTCCCG` a recorded PBM binding z-score greater than or equal to 0.4?
T

Say whether `CGAACTAGGTCAGAACAGGCCAGTGAAGGATGAT` shows PBM binding z-score of 0.4 or more.
T

Reported PBM binding z-score reaches at least 0.4 for `GCGACTGGGGCAAAGCAGGTTACCATTAGGTTGG` ?
F

Check the entry `TCGAGTAGGTTACCAATGGGGCATCCAGCTTTCT` : does PBM binding z-score equal or exceed 0.4?
F

Record `GCTCGGAGGACAGGGTCAGAGCTTTGTCCGTAGA` ; criterion: PBM binding z-score no lower than 0.4. Met?
T

###

System: PPARg homodimer (NR concentration 180 nM)
assayRemarks: PBM binding z-score (relative to random genomic background probes); higher = stronger binding; sequences stand for … in GC…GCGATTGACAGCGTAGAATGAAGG
Record form. Attribute: PBM binding z-score. Fill in for each entry.
Give bare numbers.

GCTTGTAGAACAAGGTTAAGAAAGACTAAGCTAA    0.167
GCTTACGGGTCAAAGGTTATAGCATGAATAGAAT    2.12
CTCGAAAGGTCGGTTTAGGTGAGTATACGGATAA    1.29
TCATATAGGTAAACAGGCGAAAGTCCGTAAGTTA    1.19

Fill in PBM binding z-score for each of the 4 sequences listed.
1. TCTGCTAGGGCAGTTGGTCAGCTAACGAGCTGCC
2. TCTGCTAGGTCATTTGGTCAGCTAACGAGCTGCC
3. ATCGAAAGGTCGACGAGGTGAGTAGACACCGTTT
4. GTACCAAGGTGAATAGTTCGTTGATGAGTAGGCG

1. -0.702
2. 1.5
3. 1.49
4. 0.906

###

System: PPARg:RXRa DBDmut IVT, anti-RXR (DBD mutation: RXRa K156A/R161A, NR concentration 270 nM, RXRa partner concentration 90 nM)
assayRemarks: PBM binding z-score (relative to random genomic background probes); higher = stronger binding; sequences stand for … in GC…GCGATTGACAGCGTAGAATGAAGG
Classification field: enter Yes for PBM binding z-score values not below 0.6, No for values below it.

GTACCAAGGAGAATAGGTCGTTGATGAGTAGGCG    No

Attention now shifts to the item below.
Confirm if PBM binding z-score reported for the sequence `ACTCGGAGGACATAGGTCAGAGCTACGCCAGTGA` is 0.6 or above.
No

###

Answer each item with its documented PBM binding z-score.
System: PPARg DBDmut:RXRa IVT, anti-PPARg (DBD mutation: PPARg1 K132A/R137A, NR concentration 270 nM, RXRa partner concentration 90 nM)
assayRemarks: PBM binding z-score (relative to random genomic background probes); higher = stronger binding; sequences stand for … in GC…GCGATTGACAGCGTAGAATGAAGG

Working through the 5 sequences below one at a time, give PBM binding z-score for each.
1. ATCGAAAGGCCGAAGGTGAGTATACCCACCCGAA
2. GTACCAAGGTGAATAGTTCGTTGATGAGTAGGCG
3. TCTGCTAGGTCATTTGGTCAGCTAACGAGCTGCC
4. GCTGCTAGGTCATCTGATGGTCAGCTAAAGCTCG
5. AGAACGAGGGCACGCTGAGTTAATAGCAGAGTAG

[-0.0521, 0.321, 3.37, -0.368, -0.114]

###

Tested on: PPARg:RXRa 90nM:30nM, anti-RXR (NR concentration 90 nM, RXRa partner concentration 30 nM)
assayRemarks: PBM binding z-score (relative to random genomic background probes); higher = stronger binding; sequences stand for … in GC…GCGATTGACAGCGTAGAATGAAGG
quantityMeasured: PBM binding z-score
One number for each entry.

Reference set, count: 5
CGTCCAAGGTCAATGCTAGGTCATTGAAAGCATT    3.66
AGTCAAGGTTCAGGACGAGGTAACGTAAAGCACG    1.34
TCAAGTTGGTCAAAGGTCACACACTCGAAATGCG    10.6
GATACAGGGTCAGCTAGAGACCAGAGTATGGAAA    2.29
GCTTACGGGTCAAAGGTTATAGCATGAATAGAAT    9.91

Batch of 6 sequences: report PBM binding z-score for each.
1. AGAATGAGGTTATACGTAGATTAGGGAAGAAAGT
2. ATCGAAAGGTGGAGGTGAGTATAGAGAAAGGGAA
3. CCTACTGGGCCAAAAAGGTCACTGATGCCGATAA
4. AGAACGAGGTTATACGTAGATCAGGGAAGAAAGT
5. CCTCGGAGGACATCAGGAGGTCAGAGCTGCCAGA
6. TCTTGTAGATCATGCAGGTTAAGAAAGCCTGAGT

[1.76, 0.243, 3.78, 1, -0.136, 2.08]

###

Test system: PPARg DBDmut:RXRa IVT, anti-PPARg (DBD mutation: PPARg1 K132A/R137A, NR concentration 270 nM, RXRa partner concentration 90 nM)
assayRemarks: PBM binding z-score (relative to random genomic background probes); higher = stronger binding; sequences stand for … in GC…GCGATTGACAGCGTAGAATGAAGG
Decision: PBM binding z-score compared against 0.2; not below it gives class 1, below it gives class 0.

Known results for sequences:
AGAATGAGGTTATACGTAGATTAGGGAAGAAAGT    class 1
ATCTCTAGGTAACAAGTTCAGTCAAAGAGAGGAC    class 1

Is the recorded value of PBM binding z-score equal to or greater than 0.2 for this sequence? `GCATCTAGGTAATACAAGGTGAAAGTCCGATTGT`
class 1

###

Tested on: RXRa homodimer (NR concentration 180 nM)
assayRemarks: PBM binding z-score (relative to random genomic background probes); higher = stronger binding; sequences stand for … in GC…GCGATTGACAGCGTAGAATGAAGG
Answer each item with its documented PBM binding z-score.
Numbers only.

Here are 8 sequences together with their reported answers.
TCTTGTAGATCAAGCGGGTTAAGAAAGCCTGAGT    0.204
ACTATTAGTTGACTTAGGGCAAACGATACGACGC    0.56
CAAACTAGGACACAGAGGTCAAAGTCCGTGCGTA    6.42
ATACGTAGGTTAAGGGTCATTCAGGTTGGTTCGC    6.29
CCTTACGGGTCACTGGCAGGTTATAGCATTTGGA    4.96
GATACAGGGTCAGCTAGAGGCCAGAGGATGGAAA    4.69
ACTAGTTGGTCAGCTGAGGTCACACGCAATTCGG    4.02
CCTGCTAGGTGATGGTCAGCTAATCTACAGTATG    -0.424

# map each sequence to its PBM binding z-score
1. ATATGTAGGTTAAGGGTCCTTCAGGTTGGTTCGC
2. CATACAGAGTCAGCTAGGCCAGAGTAGGGACGGC
3. TGATATAGGTAAATGCTAGGTGAAAGTCCGATCT
4. AGTCAAAGTTCATCTAGGTAAAGTAAGATATGCT
5. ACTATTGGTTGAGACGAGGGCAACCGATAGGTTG
6. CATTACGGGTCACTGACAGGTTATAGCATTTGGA
7. CCTTACGGGTCAATGACAGGTTATAGCATTTGGA
8. CCTACTTGGCCAAAGGTCATTGATTCCAATGCTC

[1.59, -0.193, 0.453, 5.07, 0.596, 5.7, 4.58, 6.05]
